Hi there, I'd appreciate the recorded viability for every entry that follows.
- Test Name: drug combination growth inhibition, ovarian cancer – cell-based, oncology-focused library, rucaparib conditional, profiling panel (AID 1508598)
- Condition Description: patient-derived ovarian cancer cells, CellTiter-Glo viability, 144 h; at 0.0195 µM; OCI-P5x cells; with rucaparib 20 µM; stronger effect = lower value; 100% = cells with rucaparib alone
Provide only the numeric value, understood in %.

Input `O=C1[C@H](CC[C@H](O)c2ccc(F)cc2)[C@H](c2ccc(O)cc2)N1c1ccc(F)cc1` , output reported viability. 104

Input `C=C1/C(=C/C=C2\CCC[C@@]3(C)[C@H]2CC[C@H]3[C@H](C)/C=C/[C@@H](C)C(C)C)C[C@H](O)C[C@@H]1O` , output reported viability. 102

Input `COc1cc(Br)c(Nc2nc(-c3c(C)nc4ncccn34)cs2)c(Br)c1` , output reported viability. 101

Input `COc1cccc2c1C(=O)c1c(O)c3c(c(O)c1C2=O)C[C@@](O)(C(=O)CO)C[C@H]3O[C@H]1C[C@H](N)[C@H](O)[C@H](C)O1` , output reported viability. 103

Input `N[C@@H]1CCCN(c2c(/C=C3\SC(=O)NC3=O)cccc2-c2ccccc2)C1` , output reported viability. 96.9

Input `CC1(C)O[C@@H]2C[C@H]3[C@@H]4CCC5=CC(=O)C=C[C@]5(C)[C@]4(F)[C@H](O)C[C@]3(C)[C@@]2(C(=O)CO)O1` , output reported viability. 92.8

Input `Cc1cc2c(C(=O)NC[C@H](C)c3ccccc3)c(O)c(O)cc2c(O)c1-c1c(C)cc2c(C(=O)NC[C@H](C)c3ccccc3)c(O)c(O)cc2c1O` , output reported viability. 102

Input C[C@@]12CC[C@H]3c4ccc(O)cc4C[C@@H](CCCCCCCCCS(=O)CCCC(F)(F)C(F)(F)F)[C@H]3[C@@H]1CC[C@@H]2O (stereo not given in full) , output reported viability. 116

Input `C[C@]12CCC(=O)C=C1CC[C@@H]1[C@H]2[C@H](O)C[C@@]2(C)[C@H]1CC[C@@]2(O)C(=O)CO` , output reported viability. 109

Input `c1ccc(Cn2c(-c3ccc(OC[C@H](C4CCNCC4)n4c(-c5ccccc5)nc5ccccc54)cc3)nc3ccccc32)cc1` , output reported viability. 96.1

====

Hi there, I'd appreciate the recorded z-score for every entry that follows.
- Test Name: MELAS cybrid and Rieske KO viability enhancers – cell-based, MELAS cybrids, Rieske KO mouse fibroblasts, CellTiter-Glo, primary screen (AID 1508586);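 note: z relative to plate mean and SD of compound and empty wells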
- Condition Description: MELAS cybrid survival, low glucose, CellTiter-Glo 48 h; stronger effect = higher value
// return a plain number; no unit text

Input `Cc1ccc(Cl)cc1NC(=O)N[C@H]1C[C@H]2C(=O)N[C@H](C(C)C)C(=O)N2C1` , output reported z-score. -0.17

Input `COCC(=O)Nc1c(C(=O)OC)n(C)c2ncc(NCc3cnn(C)c3C)cc12` , output reported z-score. -0.241

Input `CCCCc1ncc(CN2CCc3c(cc(-c4ccncc4)c(=O)n3C/C=C/c3ccccc3)C2)[nH]1` , output reported z-score. -0.405

Input Cn1nc(C(=O)N2CCCCCC2)c2c1CCC(NCc1ccc(C(F)(F)F)cc1)C2 (centres undefined) , output reported z-score. -0.174

Input `COc1ccc(CCn2nc(C(=O)N(C)C)c3c2CCN(C(=O)c2csc4c2CCCC4)C3)cc1` , output reported z-score. -0.0604

Input `CC[C@H]1OC(=O)[C@H](C)[C@@H](O[C@H]2C[C@@](C)(OC)[C@@H](O)[C@H](C)O2)[C@H](C)[C@@H](O[C@@H]2O[C@H](C)C[C@H](N(C)C)[C@H]2O)[C@](C)(O)C[C@@H](C)/C(=N/OCOCCOC)[C@H](C)[C@@H](O)[C@]1(C)O` , output reported z-score. -0.295

Input `CCOC(=O)c1nn(Cc2ccccn2)c2c1CN(Cc1ccc(NC(C)=O)s1)CC2` , output reported z-score. -0.809

Input CCCCC(F)(F)C(=O)CCC1C(O)CC(=O)C1CCCCCCC(=O)O (centres undefined) , output reported z-score. 0.0399

Input CCOC(=O)C(CCc1ccccc1)NC(C)C(=O)N1Cc2ccccc2CC1C(=O)O (centres undefined) , output reported z-score. 0.0216

Input `C[C@H](NC(=O)c1cnc(-c2ccccc2)[nH]1)c1ccccc1` , output reported z-score. 0.341

Input Nc1ncn(C2O[C@H](CO)[C@@H](O)[C@H]2O)c(=O)n1 (some centres undefined) , output reported z-score. -0.101

Input `Cc1sc2ncnc(-c3cccc4cccnc34)c2c1C` , output reported z-score. -0.544

Input `CCCCc1nc2cc(C=CC(=O)NO)ccc2n1CCN(CC)CC` , output reported z-score. 0.665

Input `CC(C)N1CCN(C(=O)c2cc(-c3ccccc3)cc(S(=O)(=O)N3CCSCC3)c2)CC1` , output reported z-score. -0.246

====

- Test Name: viability loss with induced miR-34 in A549 – imaging, A549 dox-inducible miR-34, nuclei and caspase counts, primary screen (AID 1347080)
- Condition Description: A549 miR-34 inducible, Hoechst nuclei count, 48 h; measured here: relative caspase fold change +Dox/-Dox
Reported Metric: fold change
// return a plain number; no unit text

Input CN1CC(O)C(O)C(O)C1CO (centres undefined) , output reported fold change. 1.01

Input `CCCn1c(=O)c2[nH]c(-c3ccc(S(=O)(=O)O)cc3)nc2n(CCC)c1=O` , output reported fold change. 2.81

Input `Cc1nc(-c2ccnc(N)n2)cn1Cc1c(Cl)cccc1Cl` , output reported fold change. 0.94

Input `Cc1[nH]c(C=C2C(=O)Nc3ccccc32)c(C)c1CCC(=O)O` , output reported fold change. 0.799

Input `CCn1ncc(NC(=O)Cn2cc(-c3ncnc4ccsc34)cn2)n1` , output reported fold change. 1.75

Input O=c1ncccn1C1OC(CO)C(O)C1O (centres undefined) , output reported fold change. 0.461

Input `O=C(O)c1cnc(-c2ccccc2)[nH]1` , output reported fold change. 0.271

Input COc1cc(F)c(F)c(Nc2ccc(I)cc2F)c1NS(=O)(=O)C1(CC(O)CO)CC1 (centres undefined) , output reported fold change. 0.76

Input CC(C)CCNC(=O)C(CC(C)C)NC(=O)C1OC1C(=O)O (centres undefined) , output reported fold change. 0.36

Input `CCn1ccnc1CN(C)C(=O)c1cc(-c2cnc(N)nc2)nc2c(C)cccc12` , output reported fold change. 1.48

Input `COc1ccc2c(c1)CCN(C(=O)Nc1n[nH]c(-c3ccco3)n1)C2` , output reported fold change. 1.45

Input CC(NC(=O)Cc1cc(F)cc(F)c1)C(=O)NC1C(=O)N(C)c2ccccc2-c2ccccc21 (centres undefined) , output reported fold change. 0.674

Input COC(=O)[C@@H]1CC(=O)O[C@H](C)C/C=C/C=C/[C@H](O)[C@H](C)C[C@H](CC=O)[C@H](OC2O[C@H](C)[C@@H](OC3C[C@@](C)(O)[C@@H](OC(=O)CC(C)C)[C@H](C)O3)[C@H](N(C)C)[C@H]2O)[C@H]1OC (some centres undefined) , output reported fold change. 3.35

Input `CCCCCCCCCCCCCC(=O)N[C@@H](C)[C@H](O)c1ccccc1` , output reported fold change. 0.985

====

- Test Name: viability loss with induced miR-34 in A549 – imaging, A549 dox-inducible miR-34, nuclei and caspase counts, primary screen (AID 1347080)
- Condition Description: A549 miR-34 inducible, Hoechst nuclei count, 48 h; stronger effect = lower value; cell number ratio, induced over uninduced
Calls of active or inactive are those of the source.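 The calls were made as follows: active = compounds whose cell count with miR-34 switched on is under 0.7 times the count with it off; inactive = the rest.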
Reported Metric: fold change

Input C=C1c2cccc(O)c2C(O)=C2C(=O)[C@]3(O)C(O)=C(C(N)=O)C(=O)C(N(C)C)[C@@H]3C(O)[C@H]12 (stereo not given in full) , output reported fold change. 0.858 (inactive)

Input CC(C)NCC(C(=O)N1CCN(c2ncnc3c2C(C)CC3O)CC1)c1ccc(Cl)cc1 (stereo not given) , output reported fold change. 1.1 (inactive)

Input CC1COCCN1c1cc(C2(S(C)(=O)=O)CC2)nc(-c2cccc3[nH]ccc23)n1 (stereo not given) , output reported fold change. 0.703 (inactive)

Input `CC(=O)C(C)=O` , output reported fold change. 1.06 (inactive)

Input CCC(=O)OC1(C(=O)CCl)[C@@H](C)C[C@H]2[C@@H]3CCC4=CC(=O)C=C[C@]4(C)[C@@]3(F)[C@@H](O)C[C@@]21C (stereo not given in full) , output reported fold change. 0.789 (inactive)

Input CCC(C)[C@H](NS(=O)(=O)c1cccc2ccccc12)C(=O)N[C@H](C=O)Cc1c[nH]c2ccccc12 (stereo not given in full) , output reported fold change. 0.877 (inactive)

Input `CCN(CC)S(=O)(=O)c1cc(C(=O)Nc2ccccc2C(=O)O)ccc1Br` , output reported fold change. 0.904 (inactive)

Input Cc1c(CN2CCN(C(=O)C(C)O)CC2)sc2c(N3CCOCC3)nc(-c3cnc(N)nc3)nc12 (stereo not given) , output reported fold change. 1.11 (inactive)

Input `COc1cc2c(CCNC(C)=O)c[nH]c2cc1O` , output reported fold change. 0.921 (inactive)

Input `CNC(=O)c1cc(Oc2ccc3nc(Nc4ccc(Cl)c(C(F)(F)F)c4)[nH]c3c2)ccn1` , output reported fold change. 0.938 (inactive)

Input `Cn1c(=O)ccc2ccccc21` , output reported fold change. 0.892 (inactive)

Input CC(=O)OC1C[C@@H]2CC[C@@H]3[C@@H](CC[C@]4(C)C(OC(C)=O)C([N+]5(C)CCCCC5)C[C@@H]34)[C@@]2(C)CC1[N+]1(C)CCCCC1 (stereo not given in full) , output reported fold change. 0.982 (inactive)

Input `c1ccc(CN2CCC3(CCCc4ccccc43)CC2)cc1` , output reported fold change. 1.19 (inactive)

Input `O[N+]1=CC=CCC1=S.On1ccccc1=S.[Zn]` , output reported fold change. 0.416 (active)

Input `Cc1cc(C)nc(NS(=O)(=O)c2ccc(NC(=S)NC(=O)COc3ccc(Br)cc3Cl)cc2)n1` , output reported fold change. 0.955 (inactive)

Input `CCCCn1c(=O)c2c(ncn2CC(C)=O)n(CCCC)c1=O` , output reported fold change. 0.978 (inactive)

Input `COC(=O)C=CC(=O)OC` , output reported fold change. 0.917 (inactive)

Input `CCn1ccnc1CN(C)C(=O)c1cc(-c2cnc(N)nc2)nc2cc(C)ccc12` , output reported fold change. 0.962 (inactive)

Input `COc1ccc(CN2CCN(c3nccc(-c4cn(C)nc4C)n3)CC2=O)cc1` , output reported fold change. 0.778 (inactive)

Input `N=C(N)SCCc1ccc(CCSC(=N)N)cc1` , output reported fold change. 1.11 (inactive)
